Assay system: α4β2 (Homo sapiens, UniProt P17787+P43681)
Construct: host or cells: HEK293 or CHO
Sequence (P43681 29-627): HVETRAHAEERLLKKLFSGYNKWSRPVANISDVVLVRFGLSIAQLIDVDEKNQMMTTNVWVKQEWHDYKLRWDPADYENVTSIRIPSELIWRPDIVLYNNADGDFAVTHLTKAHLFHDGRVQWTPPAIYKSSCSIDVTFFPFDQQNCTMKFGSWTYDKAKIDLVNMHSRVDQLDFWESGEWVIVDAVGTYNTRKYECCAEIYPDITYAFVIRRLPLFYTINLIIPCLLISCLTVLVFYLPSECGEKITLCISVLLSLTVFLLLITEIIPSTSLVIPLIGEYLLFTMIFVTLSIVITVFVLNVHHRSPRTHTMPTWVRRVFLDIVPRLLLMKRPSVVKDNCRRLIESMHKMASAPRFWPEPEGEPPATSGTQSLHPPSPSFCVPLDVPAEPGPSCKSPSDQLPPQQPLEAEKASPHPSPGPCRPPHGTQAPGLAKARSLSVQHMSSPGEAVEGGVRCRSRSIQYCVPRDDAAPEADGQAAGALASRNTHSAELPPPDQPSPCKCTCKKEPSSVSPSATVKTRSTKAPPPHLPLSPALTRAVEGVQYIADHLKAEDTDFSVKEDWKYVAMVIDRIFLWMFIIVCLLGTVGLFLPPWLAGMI
Sequence (P17787 26-502): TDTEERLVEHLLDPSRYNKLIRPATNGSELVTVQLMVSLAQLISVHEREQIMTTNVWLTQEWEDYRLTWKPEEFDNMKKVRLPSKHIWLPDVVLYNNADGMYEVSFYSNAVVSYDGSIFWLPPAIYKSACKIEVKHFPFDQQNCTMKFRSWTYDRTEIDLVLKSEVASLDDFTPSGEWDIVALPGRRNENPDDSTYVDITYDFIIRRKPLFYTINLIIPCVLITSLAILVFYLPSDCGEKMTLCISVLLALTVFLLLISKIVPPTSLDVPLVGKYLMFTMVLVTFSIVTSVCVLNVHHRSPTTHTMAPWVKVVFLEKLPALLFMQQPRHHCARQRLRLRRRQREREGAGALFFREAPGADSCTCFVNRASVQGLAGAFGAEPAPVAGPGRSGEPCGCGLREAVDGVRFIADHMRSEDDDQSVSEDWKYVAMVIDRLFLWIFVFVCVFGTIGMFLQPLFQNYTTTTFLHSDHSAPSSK
Test method notes: Ion channel panel (IonWorks Barracuda): α4β2
Format: cell-based
Condition summary: peptide at 0.2 μM; 100% = no change, <100% = inhibition
Measured metric: Activity of a4b2 with peptide, expressed as a percentage of the reference compound
Please give the number followed by its unit.

Record excerpt, results attached:
16 (GSQFCGTNGKPCVNGQCCGALRCVVTYHYADGVCLKMNP) [compound 16] = 83%
10 (GSQVQTNVKCQGGSCASVCRREIGVAAGKCINGKCVCYRN) [compound 10] = 96%
19 (GSQFTDVKCTGSKQCWPVCKQMFGKPNGKCMNGKCRCYS) [compound 19] = 99%
13 (GSQKILSNRCNNSSECIPHCIRIFGTRAAKCINRKCYCYP) [compound 13] = 97%

Consider now this further substance.
Kindly note the recorded Activity of a4b2 with peptide, expressed as a percentage of the reference compound for 24 (GSSCAKPGEMCMRIKCCDGQCGCNRGTGRCFCK) [compound 24] , which is 97%

Provenance of the data: patent US20200262877A1
